- Experiment Summary: in vitro
- Experimental Context: human, CC50 (Visual)

>  <Compound>
Fc1ccc([C@@H]2CCNC[C@H]2COc2ccc3c(c2)OCO3)cc1 [Paroxetine]

>  <CC50>
3.2 µM

$$$$
>  <Compound>
Oc1ccc(-c2nc(-c3ccncc3)c(-c3ccc(F)cc3)[nH]2)cc1 [SB202190]

>  <CC50>
> 100 µM

$$$$
>  <Compound>
O=C1[C@H](CC[C@H](O)c2ccc(F)cc2)[C@@H](c2ccc(O)cc2)N1c1ccc(F)cc1 [Ezetimibe]

>  <CC50>
32 µM

$$$$
>  <Compound>
CCn1nc(C(=O)O)c(=O)c2cc3c(cc21)OCO3 [Cinoxacin]

>  <CC50>
> 100 µM

$$$$
